test: molar heat capacity at constant pressure; details: 337.15 K; 101.33 kPa; Liquid; Small sample (50 mg) DSC
Label 1 (yes) for high-side molar heat capacity at constant pressure (at or above 200 J/K/mol) and 0 (no) for low-side molar heat capacity at constant pressure (below it).

COMPOUND STRING	LABEL CLASS
Clc1ccc(Cl)cc1	0 (no)
Clc1ccccc1Br	0 (no)
Clc1ccccc1Cl	0 (no)
Clc1ccc(Cl)c(Cl)c1Cl	1 (yes)
Brc1ccccc1	0 (no)

----------
assay: molar heat capacity at constant pressure; details: 305.15 K; 101.33 kPa; Liquid; Small sample (50 mg) DSC
A collection of compounds and their measured molar heat capacity at constant pressure

COMPOUND STRING	molar heat capacity at constant pressure / J/K/mol
Clc1ccccc1Cl	172.2
Clc1ccc(Cl)c(Cl)c1	196.27
Brc1ccccc1	156.05
Brc1cccc(Br)c1	179.97
Clc1cccc(Cl)c1	171.69
Clc1ccccc1	152.56
Brc1ccccc1Br	181.22
Clc1ccccc1Br	176.36
Clc1cccc(Br)c1	175.4

----------
test: molar heat capacity at constant pressure; settings: 297.15 K; 101.33 kPa; Liquid; Small sample (50 mg) DSC
± gives the expanded uncertainty stated by the source.
A collection of molecules and their measured molar heat capacity at constant pressure

COMPOUND STRING	molar heat capacity at constant pressure
Brc1cccc(Br)c1	178.44 ± 2.8 J/K/mol
Clc1cccc(Cl)c1	169.97 ± 2.6 J/K/mol
Brc1ccccc1Br	179.76 ± 2.8 J/K/mol

----------
conditions: 338.15 K; 101.33 kPa; Liquid; Vibrating tube method
A collection of molecules and their measured mass density

COMPOUND STRING	UNITS TEXT	mass density
Clc1ccc(Cl)c(Cl)c1	kg/m3	1400.98
Brc1ccccc1Br	kg/m3	1912.34
Brc1ccccc1	kg/m3	1434.15
Clc1ccccc1Br	kg/m3	1593.03
Clc1cccc(Cl)c1	kg/m3	1237.42
Clc1cccc(Br)c1	kg/m3	1571.05
Clc1ccccc1Cl	kg/m3	1255.87
Clc1ccccc1	kg/m3	1057.58
Brc1cccc(Br)c1	kg/m3	1887.88

----------
experiment: molar heat capacity at constant pressure; conditions: 297.15 K; 101.33 kPa; Liquid; Small sample (50 mg) DSC
A collection of compounds and their measured molar heat capacity at constant pressure

COMPOUND	UNITS TEXT	molar heat capacity at constant pressure
Clc1ccc(Cl)c(Cl)c1 [1,2,4-trichlorobenzene]	J/K/mol	194.9
Clc1ccccc1Br [1-bromo-2-chlorobenzene]	J/K/mol	174.78
Clc1ccccc1 [chlorobenzene]	J/K/mol	150.73
Clc1cccc(Br)c1 [1-bromo-3-chlorobenzene]	J/K/mol	173.75
Brc1ccccc1 [bromobenzene]	J/K/mol	154.35
Clc1ccccc1Cl [1,2-dichlorobenzene]	J/K/mol	170.47

----------
assay: molar heat capacity at constant pressure; conditions: 331.15 K; 101.33 kPa; Liquid; Small sample (50 mg) DSC
A collection of compounds and their measured molar heat capacity at constant pressure
MEASURED METRIC: molar heat capacity at constant pressure (J/K/mol)

COMPOUND STRING	VALUE MEASURED
Clc1ccc(Cl)c(Cl)c1Cl	225.82
Brc1ccccc1	162
Clc1ccc(Cl)cc1	177.98
Brc1cccc(Br)c1	185.4
Clc1ccccc1Br	181.9
Clc1cccc(Br)c1	181.13
Clc1ccccc1Cl	178.2
Clc1ccccc1	158.86
Clc1ccc(Cl)c(Cl)c1	201.16
Brc1ccccc1Br	186.42
Clc1cccc(Cl)c1Cl	202.16
Clc1cccc(Cl)c1	177.75

----------
A collection of compounds and their measured molar heat capacity at constant pressure
experiment: molar heat capacity at constant pressure; settings: 343.15 K; 101.33 kPa; Liquid; Small sample (50 mg) DSC

COMPOUND STRING	UNITS TEXT	molar heat capacity at constant pressure
Clc1cccc(Cl)c1Cl	J/K/mol	204.38
Brc1cccc(Br)c1	J/K/mol	187.9
Brc1ccccc1Br	J/K/mol	188.82
Clc1ccccc1Br	J/K/mol	184.47
Clc1cccc(Cl)c1	J/K/mol	180.7
Clc1ccc(Cl)c(Cl)c1	J/K/mol	203.47

----------
settings: 318.15 K; 101.33 kPa; Liquid; Vibrating tube method

COMPOUND STRING	mass density (kg/m3)
Brc1ccccc1	1461.39
Clc1ccccc1	1079.48
Clc1ccccc1Cl	1278.29
Clc1ccccc1Br	1619.69
Clc1ccc(Cl)c(Cl)c1	1424.8
Clc1cccc(Cl)c1	1260.17
Brc1cccc(Br)c1	1918.3
Brc1ccccc1Br	1942.51
Clc1cccc(Br)c1	1598.05

----------
test: molar heat capacity at constant pressure; settings: 319.15 K; 101.33 kPa; Liquid; Small sample (50 mg) DSC

COMPOUND STRING	molar heat capacity at constant pressure, J/K/mol
Brc1ccccc1	159.2
Clc1ccccc1Cl	175.38
Brc1ccccc1Br	183.97
Clc1cccc(Br)c1	178.44
Clc1ccccc1Br	179.31
Brc1cccc(Br)c1	182.85
Clc1ccccc1	155.9
Clc1cccc(Cl)c1	174.88
Clc1ccc(Cl)c(Cl)c1	198.85

----------
A collection of compounds and their measured molar heat capacity at constant pressure
experiment: molar heat capacity at constant pressure; conditions: 325.15 K; 101.33 kPa; Liquid; Small sample (50 mg) DSC

COMPOUND	UNITS TEXT	molar heat capacity at constant pressure
Clc1ccc(Cl)c(Cl)c1 [1,2,4-trichlorobenzene]	J/K/mol	200
Clc1ccccc1Br [1-bromo-2-chlorobenzene]	J/K/mol	180.6
Brc1ccccc1Br [1,2-dibromobenzene]	J/K/mol	185.19
Clc1ccccc1 [chlorobenzene]	J/K/mol	157.37
Brc1cccc(Br)c1 [1,3-dibromobenzene]	J/K/mol	184.13
Clc1ccccc1Cl [1,2-dichlorobenzene]	J/K/mol	176.79
Clc1cccc(Cl)c1 [1,3-dichlorobenzene]	J/K/mol	176.3
Brc1ccccc1 [bromobenzene]	J/K/mol	160.6
Clc1cccc(Br)c1 [1-bromo-3-chlorobenzene]	J/K/mol	179.78

----------
A collection of compounds and their measured molar heat capacity at constant pressure
experiment: molar heat capacity at constant pressure; conditions: 323.15 K; 101.33 kPa; Liquid; Small sample (50 mg) DSC
± gives the expanded uncertainty stated by the source.

COMPOUND STRING	molar heat capacity at constant pressure
Clc1ccccc1	156.88 ± 2.4 J/K/mol
Clc1ccc(Cl)c(Cl)c1	199.61 ± 3.1 J/K/mol
Clc1ccccc1Br	180.17 ± 2.8 J/K/mol
Clc1cccc(Br)c1	179.33 ± 2.8 J/K/mol
Brc1ccccc1	160.13 ± 2.5 J/K/mol
Clc1cccc(Cl)c1	175.83 ± 2.7 J/K/mol
Brc1ccccc1Br	184.79 ± 2.9 J/K/mol
Clc1ccccc1Cl	176.32 ± 2.7 J/K/mol
Brc1cccc(Br)c1	183.7 ± 2.9 J/K/mol

----------
assay: molar heat capacity at constant pressure; conditions: 335.15 K; 101.33 kPa; Liquid; Small sample (50 mg) DSC
A collection of compounds and their measured molar heat capacity at constant pressure
MEASURED METRIC: molar heat capacity at constant pressure (J/K/mol)

COMPOUND STRING	VALUE MEASURED
Clc1ccc(Cl)c(Cl)c1	201.93
Brc1cccc(Br)c1	186.25
Clc1cccc(Br)c1	182.03
Brc1ccccc1	162.95
Clc1ccc(Cl)c(Cl)c1Cl	226.47
Clc1ccc(Cl)cc1	178.89
Clc1cccc(Cl)c1	178.73
Clc1cccc(Cl)c1Cl	202.88
Clc1ccccc1Br	182.77
Clc1ccccc1	159.85
Brc1ccccc1Br	187.23
Clc1ccccc1Cl	179.14

----------
A collection of compounds and their measured molar heat capacity at constant pressure
assay: molar heat capacity at constant pressure; settings: 321.15 K; 101.33 kPa; Liquid; Small sample (50 mg) DSC

COMPOUND STRING	UNITS TEXT	molar heat capacity at constant pressure
Clc1ccccc1Br	J/K/mol	179.74
Clc1cccc(Cl)c1	J/K/mol	175.35
Brc1cccc(Br)c1	J/K/mol	183.28
Clc1ccccc1	J/K/mol	156.39
Clc1ccc(Cl)c(Cl)c1	J/K/mol	199.23
Brc1ccccc1Br	J/K/mol	184.38

----------
test: molar heat capacity at constant pressure; details: 287.15 K; 101.33 kPa; Liquid; Small sample (50 mg) DSC
A collection of compounds and their measured molar heat capacity at constant pressure

COMPOUND	molar heat capacity at constant pressure, J/K/mol
Clc1ccccc1Cl [1,2-dichlorobenzene]	168.44
Clc1cccc(Cl)c1 [1,3-dichlorobenzene]	167.93
Clc1ccccc1Br [1-bromo-2-chlorobenzene]	172.94
Brc1cccc(Br)c1 [1,3-dibromobenzene]	176.71
Clc1ccccc1 [chlorobenzene]	148.56
Brc1ccccc1Br [1,2-dibromobenzene]	178.12
Brc1ccccc1 [bromobenzene]	152.37
Clc1cccc(Br)c1 [1-bromo-3-chlorobenzene]	171.84
